Literature roundup of Androgen receptor (Rattus norvegicus) data, read-out IC50.

# compound, tested.system, measure.unit, operator, IC50
rows = [
    ("CCN(CC)C(=O)[C@H]1CC[C@H]2[C@@H]3CC[C@H]4NC(=O)C=C[C@]4(C)[C@H]3CC[C@]12C", "Androgen receptor (Rattus norvegicus)", "µM", ">", 100),
    ("CCN(CC)CCOc1ccc(/C(=C(\\Cl)c2ccccc2)c2ccccc2)cc1", "Androgen receptor (Rattus norvegicus)", "µM", "=", 13.5),
    ("CCC(c1ccc(O)cc1)C(CC)c1ccc(OC)cc1 (stereo unspecified)", "Androgen receptor (Rattus norvegicus)", "µM", "=", 12.9),
    ("Cn1c2c(c3cc(O)ccc31)CSc1cc(O)ccc1-2", "Androgen receptor (Rattus norvegicus)", "µM", "=", 2.1),
    ("CN1C(=O)CC[C@H]2C1CC[C@@H]1[C@@H]2CC[C@@]2(C)[C@H]1CC[C@@]21CCCO1 (stereo partly specified)", "Androgen receptor (Rattus norvegicus)", "µM", "=", 2),
    ("CCC(C)C(=O)[C@H]1CC[C@H]2[C@@H]3CCC4NC(=O)C=C[C@]4(C)[C@H]3CC[C@]12C (stereo partly specified)", "Androgen receptor (Rattus norvegicus)", "µM", ">", 100),
    ("CN1C(=O)CC[C@@]2(C)C1CC[C@H]1[C@@H]3CC[C@H](C(=O)NC(C)(C)C)[C@@]3(C)CC[C@@H]12 (stereo partly specified)", "Androgen receptor (Rattus norvegicus)", "µM", "=", 0.68),
    ("O=C(/C=C/c1ccccc1)c1ccccc1", "Androgen receptor (Rattus norvegicus)", "µM", "=", 64.6),
    ("CCN(CC)C(=O)[C@H]1CC[C@H]2[C@@H]3CC[C@H]4N(C)C(=O)CC[C@]4(C)[C@H]3CC[C@]12C", "Androgen receptor (Rattus norvegicus)", "µM", "=", 2.8),
    ("COC(=O)[C@H]1CC[C@H]2[C@@H]3CCC4N(C)C(=O)CC[C@]4(C)[C@H]3CC[C@]12C (stereo partly specified)", "Androgen receptor (Rattus norvegicus)", "µM", "=", 0.12),
    ("CCN(CC)C(=O)[C@H]1CC[C@H]2[C@@H]3CC[C@H]4N(C)C(=O)C(=O)C[C@]4(C)[C@H]3CC[C@]12C", "Androgen receptor (Rattus norvegicus)", "µM", "=", 50),
    ("O=c1c(-c2ccc(O)cc2)coc2cc(O)cc(O)c12", "Androgen receptor (Rattus norvegicus)", "µM", "=", 85.1),
    ("CCCCCNC(=O)[C@H]1CC[C@H]2[C@@H]3CCC4N(C)C(=O)CC[C@]4(C)[C@H]3CC[C@]12C (stereo partly specified)", "Androgen receptor (Rattus norvegicus)", "µM", "=", 0.25),
    ("CC(C(=O)[O-])[C@H]1CC[C@H]2[C@@H]3CC=C4N(C)C(=O)CC[C@]4(C)[C@H]3CC[C@]12C.[Na+] (stereo partly specified)", "Androgen receptor (Rattus norvegicus)", "µM", "=", 25),
    ("CCC(c1ccc(O)c(O)c1)C(CC)c1ccc(O)c(O)c1 (stereo unspecified)", "Androgen receptor (Rattus norvegicus)", "µM", "=", 37.2),
    ("CCN(CC)C(=O)[C@H]1CC[C@H]2[C@@H]3CC[C@H]4N(C)C(=O)C[C@H](C#N)[C@]4(C)[C@H]3CC[C@]12C", "Androgen receptor (Rattus norvegicus)", "µM", ">", 10),
]
